Tested on: mir-21 miRNA
testName: pGL3-mir-21 sensor luciferase assay in HeLa cells
Type: cell-based, human
experimentalParameters: Table 50, pGL3-mir-21 sensor-expressing HeLa cells, 5.5 nM, normalized to pRL-CMV
In the oligonucleotide strings, read from the 5' end, every base follows the letter of its sugar. An asterisk marks phosphorothioate; unmarked linkages are phosphodiester. Other units and linkages are bracketed, terminal groups are in braces. A string of capitals states the bases alone. e = 2'-O-(2-methoxyethyl) (MOE); [5mC] = 5-methylcytosine; d = 2'-deoxy (DNA)
measureName: luciferase expression % UTC (% UTC)

{"substance": "327917 (antisense eT*e[5mC]*eA*eA*e[5mC]*eA*eT*e[5mC]*eA*eG*eT*e[5mC]*eT*eG*eA*eT*eA*eA*eG*e[5mC]*eT*eA) [compound 327917]", "systemTested": "mir-21 miRNA", "measureName": "luciferase expression % UTC", "quantityUnit": "% UTC", "reportedValue": 1293}
{"substance": "345382 (TCAACATCAGTCTGATAAGCTA; sugars from the 5' end e5 d10 e7, all phosphorothioate, methylation of C not given here) [compound 345382]", "systemTested": "mir-21 miRNA", "measureName": "luciferase expression % UTC", "quantityUnit": "% UTC", "reportedValue": 135}
{"substance": "358768 (eA*eG*eG*eT*eG*eG*eT*eA*e[5mC]*eA*eG*e[5mC]*e[5mC]*eA*eT*eG*eG*eA*eG*eA) [compound 358768]", "systemTested": "mir-21 miRNA", "measureName": "luciferase expression % UTC", "quantityUnit": "% UTC", "reportedValue": 163}
{"substance": "342683 (antisense CCTTCCCTGAAGGTTCCTCCTT; scrambled control, further chemistry not given here) [compound 342683]", "systemTested": "mir-21 miRNA", "measureName": "luciferase expression % UTC", "quantityUnit": "% UTC", "reportedValue": 171}

* * *

Test system: differentiated adipocytes
testName: Hallmark genes and triglycerides in differentiated adipocytes
Assay type: cell-based, human
experimentalParameters: Table 28; differentiated adipocytes transfected day nine post-differentiation; 250 nM oligonucleotide
In the oligonucleotide strings, read from the 5' end, every base follows the letter of its sugar. An asterisk marks phosphorothioate; unmarked linkages are phosphodiester. Other units and linkages are bracketed, terminal groups are in braces. A string of capitals states the bases alone. e = 2'-O-(2-methoxyethyl) (MOE); [5mC] = 5-methylcytosine; d = 2'-deoxy (DNA)
Grouping by measured Glut4 is done with the following cut points: low band = under 0.6, middle band = from 0.6 up to 1, high band = 1 and over

{"substance": "327888 (antisense eA*eA*eT*eG*e[5mC]*e[5mC]*e[5mC]*e[5mC]*eT*eA*eA*eA*eA*eA*eT*e[5mC]*e[5mC]*eT*eT*eA*eT) [compound 327888]", "assignedCategory": "low band"}
{"substance": "327941 (antisense eA*eA*e[5mC]*e[5mC]*e[5mC]*eA*e[5mC]*e[5mC]*eG*eA*e[5mC]*eA*eG*e[5mC]*eA*eA*eT*eG*eA*eA*eT*eG*eT*eT) [compound 327941]", "assignedCategory": "middle band"}
{"substance": "340927 (antisense eT*eG*eA*eG*e[5mC]*dT*dA*d[5mC]*dA*dG*dT*dG*d[5mC]*dT*dT*e[5mC]*eA*eT*e[5mC]*eT*e[5mC]*eA) [compound 340927]", "assignedCategory": "middle band"}
{"substance": "327890 (antisense eA*eG*e[5mC]*eA*e[5mC]*eA*eA*eA*e[5mC]*eT*eA*e[5mC]*eT*eA*e[5mC]*e[5mC]*eT*e[5mC]*eA) [compound 327890]", "assignedCategory": "low band"}
{"substance": "327892 (antisense eA*e[5mC]*eT*eT*eT*e[5mC]*eG*eG*eT*eT*eA*eT*e[5mC]*eT*eA*eG*e[5mC]*eT*eT*eT*eA) [compound 327892]", "assignedCategory": "low band"}
{"substance": "327878 (antisense e[5mC]*eT*eA*eG*eT*eG*eG*eT*e[5mC]*e[5mC]*eT*eA*eA*eA*e[5mC]*eA*eT*eT*eT*e[5mC]*eA*e[5mC]) [compound 327878]", "assignedCategory": "low band"}
{"substance": "327919 (antisense eG*eA*eA*eA*e[5mC]*e[5mC]*e[5mC]*eA*eG*e[5mC]*eA*eG*eA*e[5mC]*eA*eA*eT*eG*eT*eA*eG*e[5mC]*eT) [compound 327919]", "assignedCategory": "high band"}
{"substance": "327925 (antisense eT*eA*eG*e[5mC]*eT*eG*eG*eT*eT*eG*eA*eA*eG*eG*eG*eG*eA*e[5mC]*e[5mC]*eA*eA) [compound 327925]", "assignedCategory": "middle band"}
{"substance": "328382 (e[5mC]*eA*eG*eA*e[5mC]*dT*d[5mC]*d[5mC]*d[5mC]*dA*dA*d[5mC]*dT*dG*dA*e[5mC]*e[5mC]*eA*eG*eA) [compound 328382]", "assignedCategory": "middle band"}
{"substance": "327876 (antisense eA*eA*e[5mC]*eA*e[5mC]*eT*eG*eA*eT*eT*eT*e[5mC]*eA*eA*eA*eT*eG*eG*eT*eG*e[5mC]*eT*eA) [compound 327876]", "assignedCategory": "high band"}
{"substance": "327934 (antisense eG*eG*eT*eA*e[5mC]*eA*eA*eT*e[5mC]*eA*eA*e[5mC]*eG*eG*eT*e[5mC]*eG*eA*eT*eG*eG*eT) [compound 327934]", "assignedCategory": "high band"}
{"substance": "327880 (antisense eA*e[5mC]*eA*eA*eA*eT*eT*e[5mC]*eG*eG*eT*eT*e[5mC]*eT*eA*e[5mC]*eA*eG*eG*eG*eT*eA) [compound 327880]", "assignedCategory": "middle band"}
{"substance": "327933 (antisense eA*eA*eG*eG*eG*eA*eT*eT*e[5mC]*e[5mC]*eT*eG*eG*eG*eA*eA*eA*eA*e[5mC]*eT*eG*eG*eA*e[5mC]) [compound 327933]", "assignedCategory": "high band"}
{"substance": "327905 (antisense e[5mC]*eA*eG*eA*e[5mC]*eT*e[5mC]*e[5mC]*eG*eG*eT*eG*eG*eA*eA*eT*eG*eA*eA*eG*eG*eA) [compound 327905]", "assignedCategory": "low band"}
{"substance": "327903 (antisense eA*eA*e[5mC]*eT*eA*eT*eA*e[5mC]*eA*eA*e[5mC]*e[5mC]*eT*eA*e[5mC]*eT*eA*e[5mC]*e[5mC]*eT*e[5mC]*eA) [compound 327903]", "assignedCategory": "low band"}
{"substance": "338664 (antisense e[5mC]*eA*eG*eA*e[5mC]*eT*e[5mC]*e[5mC]*e[5mC]*eA*eA*e[5mC]*eT*eG*eA*e[5mC]*e[5mC]*eA*eG*eA) [compound 338664]", "assignedCategory": "high band"}
{"substance": "327913 (antisense eA*eA*e[5mC]*e[5mC]*eG*eA*eT*eT*eT*e[5mC]*eA*eA*eA*eT*eG*eG*eT*eG*e[5mC]*eT*eA*eG) [compound 327913]", "assignedCategory": "high band"}
{"substance": "327901 (antisense eT*eG*eA*eG*e[5mC]*eT*eA*e[5mC]*eA*eG*eT*eG*e[5mC]*eT*eT*e[5mC]*eA*eT*e[5mC]*eT*e[5mC]*eA) [compound 327901]", "assignedCategory": "high band"}
